Hello, the source for this data is patent US10906894B2, in case you need it.

target: GPR119 (Homo sapiens); test: LANCE Ultra cAMP assay: stimulation of GPR119-mediated cAMP production in CHO cells stably expressing human GPR119 receptor; assay type: cell-based; conditions: CHO; Table A-2 entries 18-25; modified protocol, 500 cells/well; read-out: % cAMP Max. relative to forscolin
quantity_name: Emax (%)

Examples with their reported Emax follow.
[[record]]
molecule = "CC(C)c1cnc(N2CCC(COc3ccc(-c4ccc5c(c4)OCS5(=O)=O)cc3F)CC2)nc1 [Example A-66]"
units_of_measure = "%"
observed = 80

[[record]]
molecule = "CCc1ccnc(N2CC[C@H](COc3ccc(-c4ccc5c(c4)OCS5(=O)=O)cc3F)C2)n1 [Example A-92]"
units_of_measure = "%"
observed = 90

[[record]]
molecule = "O=S1(=O)COc2cc(-c3ccc(OC[C@H]4CCN(c5ncc(Cl)cn5)C4)c(F)c3)ccc21 [Example A-89]"
units_of_measure = "%"
observed = 93


1: CCc1cnc(N2CCC(COc3cnc(-c4ccc5c(c4)OCS5(=O)=O)nc3)CC2)nc1 [Example A-76]
2: CCc1cnc(N2CCC[C@H]2COc2ccc(-c3ccc4c(c3)OCS4(=O)=O)cc2F)nc1 [Example A-80]
3: CCc1cnc(N2CCC[C@@H]2COc2ccc(-c3ccc4c(c3)OCS4(=O)=O)cc2F)nc1 [Example A-71]
In this exercise, place the 3 molecules in ascending sequence of their recorded Emax. List the labels according to the requested ordering.
2, 3, 1
(2: 25%, 3: 51%, 1: 87%)

====

Target: GPR119 (Homo sapiens)
Sequence (Q8TDV5 1-335): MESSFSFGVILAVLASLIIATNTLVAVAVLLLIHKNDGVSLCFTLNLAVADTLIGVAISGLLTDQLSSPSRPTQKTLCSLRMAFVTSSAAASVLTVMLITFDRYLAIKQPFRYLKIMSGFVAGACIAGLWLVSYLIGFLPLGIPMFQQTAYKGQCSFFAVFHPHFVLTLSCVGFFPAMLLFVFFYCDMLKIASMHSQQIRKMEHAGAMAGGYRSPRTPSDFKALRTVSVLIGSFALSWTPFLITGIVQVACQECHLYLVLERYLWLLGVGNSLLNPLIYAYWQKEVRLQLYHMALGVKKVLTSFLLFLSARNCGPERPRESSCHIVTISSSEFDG
Test: LANCE Ultra cAMP assay: stimulation of GPR119-mediated cAMP production in CHO cells stably expressing human GPR119 receptor
Assay type: cell-based
Conditions: reference ligands in modified protocol, 500 cells/well
quantity_name: EC50 (µM)

P: C=C[C@@]1(C)CC(=O)[C@]2(O)[C@@]3(C)[C@@H](O)CCC(C)(C)[C@@H]3[C@H](O)[C@H](OC(C)=O)[C@@]2(C)O1 [Forscolin, Forskolin, reference compound]
Q: CCCCCCCC/C=C\CCCCCCCC(=O)NCCO [oleoyl ethanolamide, reference compound]
Among P and Q , whose measured EC50 is the smaller figure? I would appreciate it if you answered with the label of your choice.
P

====

biological target: GPR119 (Homo sapiens, UniProt Q8TDV5); assay: PathHunter β-arrestin assay (enzyme fragment complementation, β-galactosidase reporter) monitoring activation of GPR119; format: cell-based; design: β-galactosidase enzyme fragment for EFC (by own knowledge the ProLink tag, fused to the receptor's C-terminus in PathHunter lines); conditions: Table B-3, read-out: % cAMP Max.
quantity_name: Emax (%)

The cases that follow already have their Emax on record.
[[record]]
compound_string = "CCc1ccnc(N2CC[C@H](COc3ccc(-c4ccc5c(c4)OC[S@@+]5[O-])cc3F)C2)n1"
quantity_name = "Emax"
observed = 117

[[record]]
compound_string = "CCc1cnc(N2CC[C@H](COc3ccc(-c4ccc5c(c4)OC[S@@+]5[O-])cc3F)C2)nc1"
quantity_name = "Emax"
observed = 190


I: CC(C)c1cnc(N2CCC(COc3ccc(-c4ccc5c(c4)OC[S@@+]5[O-])cc3F)CC2)nc1
II: CCc1ccnc(N2CC[C@H](COc3ccc(-c4ccc5c(c4)OC[S@+]5[O-])cc3F)C2)n1
Which entry has a larger number for Emax, I or II ? Indicate your choice by writing its label.
I
